For each record, write down the corresponding relative cleavage efficiency.
- study_target: fusion protein PRV
- Sequence (chain, as listed by the source): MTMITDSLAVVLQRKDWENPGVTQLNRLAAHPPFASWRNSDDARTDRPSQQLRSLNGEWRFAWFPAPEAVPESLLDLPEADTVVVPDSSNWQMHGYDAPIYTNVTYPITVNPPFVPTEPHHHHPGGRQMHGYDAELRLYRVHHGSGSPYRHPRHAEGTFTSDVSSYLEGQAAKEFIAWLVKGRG
Output spec: scalar in %, unitless text.

Prompt: Bench note: what relative cleavage efficiency did OmpT protease variant OmpT D97H (protein) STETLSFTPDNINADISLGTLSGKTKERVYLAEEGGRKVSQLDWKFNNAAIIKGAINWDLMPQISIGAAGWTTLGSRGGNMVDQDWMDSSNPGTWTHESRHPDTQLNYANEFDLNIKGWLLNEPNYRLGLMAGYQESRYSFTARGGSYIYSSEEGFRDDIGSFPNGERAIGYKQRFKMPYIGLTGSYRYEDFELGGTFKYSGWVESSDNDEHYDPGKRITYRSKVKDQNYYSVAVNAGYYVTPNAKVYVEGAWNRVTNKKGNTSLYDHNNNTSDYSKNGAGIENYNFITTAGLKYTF show?
Completion: 7.8

Prompt: Thanks! And OmpT protease variant OmpT D97C (protein) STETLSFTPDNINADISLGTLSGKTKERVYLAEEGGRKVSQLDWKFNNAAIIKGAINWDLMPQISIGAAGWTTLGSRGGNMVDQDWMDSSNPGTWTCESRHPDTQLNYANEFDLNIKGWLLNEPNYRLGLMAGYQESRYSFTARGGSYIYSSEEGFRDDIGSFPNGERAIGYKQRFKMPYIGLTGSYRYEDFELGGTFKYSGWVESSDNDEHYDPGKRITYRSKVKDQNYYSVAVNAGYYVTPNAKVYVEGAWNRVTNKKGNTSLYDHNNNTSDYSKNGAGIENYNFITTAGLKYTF ?
Completion: 3.2
